EXPERIMENT: MTT assay for cytotoxicity
Type: cell-based, Chinese hamster
TEST_PARAMETERS: Chinese hamster, CHO-K1 cells, 250 μg/mL, read-out: cell viabilities
MEASUREMENT_LABEL: viability at 24 h, 250 μg/mL

Please fill in: viability at 24 h, 250 μg/mL reported for C=C1CC[C@H]2C(C)(C)CCC[C@@]23C(=O)OC[C@@H]13 [Antrocin, (-)-Antrocin] = 24.8%

Cited source: paper PMC10301922
